testSummary: Water solubility of free base and salts from the salt screen
experimentalConditions: water, thermodynamic from solid
endpointName: solubility (µg/mL)
The response must be a number in µg/mL with no trailing unit.

Asked: Which solubility value is on record for COc1cc2nccc(Oc3ccc(NC(=O)C4(C(=O)Nc5ccc(F)cc5)CC4)cc3)c2cc1OC.O=C(O)C[C@@H](O)C(=O)O [L-Malate] ?
Given back: 59
